- testedSystem: D(2) dopamine receptor (Homo sapiens)
- Sequence (P14416 whole entry): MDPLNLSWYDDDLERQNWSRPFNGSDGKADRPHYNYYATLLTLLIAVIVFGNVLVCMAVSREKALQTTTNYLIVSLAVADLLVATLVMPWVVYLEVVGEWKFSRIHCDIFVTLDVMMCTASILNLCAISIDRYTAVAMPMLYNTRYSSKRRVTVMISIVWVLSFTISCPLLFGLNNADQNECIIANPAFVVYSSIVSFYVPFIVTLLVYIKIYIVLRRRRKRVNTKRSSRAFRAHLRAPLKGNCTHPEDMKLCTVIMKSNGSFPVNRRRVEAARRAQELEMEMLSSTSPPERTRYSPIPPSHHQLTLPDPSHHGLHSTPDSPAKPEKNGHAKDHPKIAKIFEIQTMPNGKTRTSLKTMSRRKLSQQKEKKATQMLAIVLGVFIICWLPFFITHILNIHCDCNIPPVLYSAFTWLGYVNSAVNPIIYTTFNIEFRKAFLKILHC
- assayNotes: biochemical
- Description: Affinity for the Dopamine receptor D2S was determined using membranes from CHO cells labeled with [3H]spiperone
Could you please report measured Ki for the items listed next?

(Q) Please indicate Ki recorded for O=c1[nH]c2ccc3c(c2[nH]1)OC(CNCc1ccccc1)CC3 (racemic)
(A) 5 nM

(Q) Please indicate Ki recorded for c1ccc(CNC[C@H]2CCc3ccc4[nH]ccc4c3O2)cc1
(A) 107 nM

----------
Target or system D(2) dopamine receptor (Rattus norvegicus): recorded Ki listed per item.
Supply the numeric figure in nM, leaving out any unit text.

(Q) Give Ki; test system D(2) dopamine receptor (Rattus norvegicus); compound O=c1[nH]c2ccc3c(c2[nH]1)O[C@H](CNCc1ccccc1)CC3
(A) 67.5

(Q) Give Ki; test system D(2) dopamine receptor (Rattus norvegicus); compound FC(F)(F)c1nc2ccc3c(c2[nH]1)OC(CNCc1ccccc1)CC3 (racemic)
(A) 65.1

(Q) Give Ki; test system D(2) dopamine receptor (Rattus norvegicus); compound O=c1[nH]c2ccc3c(c2[nH]1)O[C@@H](CNCc1ccccc1)CC3
(A) 4.81

(Q) Give Ki; test system D(2) dopamine receptor (Rattus norvegicus); compound O=c1[nH]c2ccc3c(c2[nH]1)OC(CNCc1ccccc1)CC3 (racemic)
(A) 7.01

----------
- testedSystem: D(2) dopamine receptor (Rattus norvegicus)
- Sequence (P61169 whole entry): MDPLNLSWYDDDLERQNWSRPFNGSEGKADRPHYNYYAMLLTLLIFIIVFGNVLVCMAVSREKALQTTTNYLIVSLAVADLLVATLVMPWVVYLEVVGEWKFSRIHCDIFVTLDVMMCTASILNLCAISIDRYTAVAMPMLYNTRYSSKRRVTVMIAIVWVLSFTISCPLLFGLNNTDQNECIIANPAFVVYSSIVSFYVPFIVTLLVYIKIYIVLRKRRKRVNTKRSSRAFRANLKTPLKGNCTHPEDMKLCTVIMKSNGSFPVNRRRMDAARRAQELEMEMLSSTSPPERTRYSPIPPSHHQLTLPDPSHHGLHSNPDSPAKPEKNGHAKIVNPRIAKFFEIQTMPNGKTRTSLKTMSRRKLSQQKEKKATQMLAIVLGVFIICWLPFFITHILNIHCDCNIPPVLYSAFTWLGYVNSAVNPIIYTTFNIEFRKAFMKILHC
- assayNotes: Ratio D2 partial agonist, Ki(D2 Low)/Ki(D2 High), to compare a compounds estimated intrinsic activity.
Could you please report measured Ratio for the items listed next?
Note: the reply should be a number with no unit written.

(Q) Please indicate Ratio recorded for c1ccc(CNC[C@H]2CCc3ccc4[nH]ccc4c3O2)cc1
(A) 24

(Q) Please indicate Ratio recorded for Oc1nc2c3c(ccc2[nH]1)CCC(CNCc1ccccc1)O3 (racemic)
(A) 50

(Q) Please indicate Ratio recorded for O=C1Cc2c(ccc3c2O[C@@H](CNCc2ccccc2)CC3)N1
(A) 42

(Q) Please indicate Ratio recorded for Oc1nc2c3c(ccc2[nH]1)CC[C@@H](CNCc1ccccc1)O3
(A) 12

(Q) Please indicate Ratio recorded for Oc1nc2c3c(ccc2[nH]1)CC[C@H](CNCc1ccccc1)O3
(A) 69

(Q) Please indicate Ratio recorded for FC(F)(F)c1nc2c3c(ccc2[nH]1)CCC(CNCc1ccccc1)O3 (racemic)
(A) 11

----------
readoutKind: pKi
# reply with the number alone; pKi is -log10 of concentration in mol/L

(Q) Give pKi; test system D(2) dopamine receptor (Rattus norvegicus, UniProt P61169); molecule O=c1[nH]c2ccc3c(c2[nH]1)O[C@@H](CNCc1ccccc1)CC3
(A) 10.15

(Q) Give pKi; test system D(2) dopamine receptor (Rattus norvegicus, UniProt P61169); molecule O=c1[nH]c2ccc3c(c2[nH]1)OC(CNCc1ccccc1)CC3 (racemic)
(A) 9.85

(Q) Give pKi; test system D(2) dopamine receptor (Rattus norvegicus, UniProt P61169); molecule O=c1[nH]c2ccc3c(c2[nH]1)O[C@H](CNCc1ccccc1)CC3
(A) 8.26

(Q) Give pKi; test system D(2) dopamine receptor (Rattus norvegicus, UniProt P61169); molecule FC(F)(F)c1nc2ccc3c(c2[nH]1)OC(CNCc1ccccc1)CC3 (racemic)
(A) 8.24

Origin of values: ChEMBL document CHEMBL1135019
